# Tested on: MHH-CALL-4
# protocolSummary: selective drug sensitivity score (sDSS, relative to normal bone marrow) (sDSS (score)); higher = more potent and effective on the cell line relative to normal bone marrow cells;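 further: ALL cell lines in 384-well plates, five doses spanning 10,000-fold, each plate scaled between vehicle and 100 µmol/L benzalkonium chloride controls, sDSS an adapted area-under-curve metric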
# testSettings: 72 h
Param threshold (2) applies to selective drug sensitivity score; output rule met when value >= threshold, rule not met when value < threshold.

Reference set, count: 4
>  <compound>
CO[C@H]1C[C@@H]2CC[C@@H](C)[C@@](O)(O2)C(=O)C(=O)N2CCCC[C@H]2C(=O)O[C@H]([C@H](C)C[C@@H]2CC[C@@H](OCCO)[C@H](OC)C2)CC(=O)[C@H](C)/C=C(\C)[C@@H](O)[C@@H](OC)C(=O)[C@H](C)C[C@H](C)/C=C/C=C/C=C/1C [Everolimus] (top concentration 100 nM)

>  <assignedClass>
rule not met

$$$$
>  <compound>
C[C@H]1O[C@@H](O[C@H]2[C@@H](O)C[C@H](O[C@H]3[C@@H](O)C[C@H](O[C@H]4CC[C@@]5(C)[C@H](CC[C@@H]6[C@@H]5C[C@@H](O)[C@]5(C)[C@@H](C7=CC(=O)OC7)CC[C@]65O)C4)O[C@@H]3C)O[C@@H]2C)C[C@H](O)[C@@H]1O [Digoxin] (top concentration 1000 nM)

>  <assignedClass>
rule met

$$$$
>  <compound>
Nc1ncnc2c1nc(N)n2[C@@H]1O[C@H](CO)[C@@H](O)[C@H]1O [8-amino-adenosine] (top concentration 50000 nM)

>  <assignedClass>
rule met

$$$$
>  <compound>
O=C(Nc1c[nH]nc1-c1nc2ccc(CN3CCOCC3)cc2[nH]1)NC1CC1 [AT9283] (top concentration 1000 nM)

>  <assignedClass>
rule met

$$$$

Problem: Exam item: decide whether the reported selective drug sensitivity score for Cn1cc(-c2ccc(F)c(C(F)(F)F)c2)nc1C1CCN(c2ncnc3[nH]ncc23)CC1 (top concentration 10000 nM) is at least 2.
Result: rule not met

Problem: Exam item: decide whether the reported selective drug sensitivity score for CCCCCCCCc1ccc(CCC(N)(CO)CO)cc1 [Fingolimod] (top concentration 10000 nM) is at least 2.
Result: rule not met

Problem: Exam item: decide whether the reported selective drug sensitivity score for CC(=O)c1cc2c(o1)C(=O)c1ccccc1C2=O [Napabucasin] (top concentration 20000 nM) is at least 2.
Result: rule not met

Problem: Exam item: decide whether the reported selective drug sensitivity score for CC1(C)CCC(c2ccc(Cl)cc2)=C(CN2CCN(c3ccc(C(=O)NS(=O)(=O)c4ccc(N[C@H](CCN5CCOCC5)CSc5ccccc5)c(S(=O)(=O)C(F)(F)F)c4)cc3)CC2)C1 [Navitoclax] (top concentration 10000 nM) is at least 2.
Result: rule met

Problem: Exam item: decide whether the reported selective drug sensitivity score for O=C(O)CC[C@H]1CC[C@@](c2cc(F)ccc2F)(S(=O)(=O)c2ccc(Cl)cc2)CC1 [MK-0752] (top concentration 1000 nM) is at least 2.
Result: rule not met

Problem: Exam item: decide whether the reported selective drug sensitivity score for COCC[n+]1c2c(n(Cc3cnccn3)c1C)C(=O)c1ccccc1C2=O [Sepantronium_bromide] (top concentration 10000 nM) is at least 2.
Result: rule met

---

# Tested on: COG-LL-317
# protocolSummary: selective drug sensitivity score (sDSS, relative to normal bone marrow) (sDSS (score)); higher = more potent and effective on the cell line relative to normal bone marrow cells
# testSettings: 72 h
Param threshold (-0.4) applies to selective drug sensitivity score; output met when value >= threshold, not met when value < threshold.

Reference set, count: 4
>  <compound>
CN(Cc1cnc2nc(N)nc(N)c2n1)c1ccc(C(=O)N[C@@H](CCC(=O)O)C(=O)O)cc1 [Methotrexate] (top concentration 5000 nM)

>  <assignedClass>
met

$$$$
>  <compound>
Nc1ccccc1NC(=O)c1ccc(CNc2nccc(-c3cccnc3)n2)cc1 [Mocetinostat] (top concentration 10000 nM)

>  <assignedClass>
met

$$$$
>  <compound>
COCCNCc1ccc(-c2cc3nccc(Oc4ccc(NC(=O)C5(C(=O)Nc6ccc(F)cc6)CC5)cc4F)c3s2)nc1 [Sitravatinib] (top concentration 2500 nM)

>  <assignedClass>
not met

$$$$
>  <compound>
Clc1ccc(C(c2ccccc2Cl)C(Cl)Cl)cc1 (stereo unspecified) [Mitotane] (top concentration 10000 nM)

>  <assignedClass>
met

$$$$

Problem: Exam item: decide whether the reported selective drug sensitivity score for O=C(Nc1ccc2[nH]nc(-c3ccncc3)c2c1)[C@@H]1CCN(CC(=O)N2CCN(c3ccc(-c4ncccn4)cc3)CC2)C1 (top concentration 10000 nM) is at least -0.4.
Result: not met

Problem: Exam item: decide whether the reported selective drug sensitivity score for CCCCOc1nc(N)c2c(n1)N(Cc1cccc(CN3CCCC3)c1)CC(=O)N2 [Vesatolimod] (top concentration 10000 nM) is at least -0.4.
Result: not met
